Target: T1, cyBCMA (cynomolgus, UniProt A0A2K5UD97 1-53)
T1 construct: Soluble analyte in SPR; construct not described; also called cyno BCMA
T1 sequence (A0A2K5UD97 entry or part of it): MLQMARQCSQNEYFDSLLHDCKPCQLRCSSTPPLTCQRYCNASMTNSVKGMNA
Experiment: SPR, immobilised IgG, 25° C
Kindly state T½ for each of the entries shown.
Answers are plain numbers, in min.

1) L1.GDF/L3.KW/H3.AP (antibody, V domains shown, IgG in the assay) VH: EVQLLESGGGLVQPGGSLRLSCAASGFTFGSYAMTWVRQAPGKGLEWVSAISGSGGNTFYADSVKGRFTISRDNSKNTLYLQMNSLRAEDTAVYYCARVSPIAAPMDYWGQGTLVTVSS VL: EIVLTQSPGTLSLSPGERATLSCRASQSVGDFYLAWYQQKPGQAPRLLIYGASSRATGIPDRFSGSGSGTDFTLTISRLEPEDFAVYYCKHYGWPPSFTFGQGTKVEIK; 0.6

For the binder L3.PY/P6E01 (antibody, V domains shown, IgG in the assay) VH: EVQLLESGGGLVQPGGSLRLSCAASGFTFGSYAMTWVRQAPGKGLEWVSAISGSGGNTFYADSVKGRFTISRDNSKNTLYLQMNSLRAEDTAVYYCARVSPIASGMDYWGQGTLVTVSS VL: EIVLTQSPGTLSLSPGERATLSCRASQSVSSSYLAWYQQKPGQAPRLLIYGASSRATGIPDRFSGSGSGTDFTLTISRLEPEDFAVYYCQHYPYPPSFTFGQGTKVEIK , give its measured T½ value.
3.9
